Test system: 20-HETE formation (CYP4) in RKM
Assay: Inhibition of 20-HETE formation at 250 or 500 nM in RKM microsomal incubations
Assay type: biochemical, rat
Details: 500 nM compound; RKM 300 μg/ml
Label scheme for RKM % inh. @ 500 nM: lower than 20% is n, 20% and above is y.

Below, 5 compounds whose answers are already recorded.
# compound, assigned_class
rows = [
    ("Fc1ccc(C2CCN(c3cn[nH]c3)CC2)cc1 [Compound 17]", "y"),
    ("c1ccc(N2CCN(c3cn[nH]c3)CC2)cc1 [Compound 5, 1-Phenyl-4-(1H-pyrazol-4-yl)piperazine]", "n"),
    ("CC(=O)Nc1ccc(C2CCN(c3ccn[nH]3)CC2)cc1 [Compound 29]", "n"),
    ("COc1ccc(C2CCN(c3cn[nH]c3)CC2)cn1 [Compound 32]", "y"),
    ("COc1ccc(C2CCN(c3cn[nH]c3)CC2)cc1F [Compound 44]", "y"),
]

Check the entry COC(=O)c1ccc(C2CCN(c3cn[nH]c3)CC2)cc1 [Compound 12] : does RKM % inh. @ 500 nM equal or exceed 20%?
n

Check the entry c1ccc(CC2CCN(c3ccn[nH]3)CC2)cc1 [Compound 2, 4-Benzyl-1-(1H-pyrazol-5-yl)piperidine] : does RKM % inh. @ 500 nM equal or exceed 20%?
n

Check the entry COc1ccc(C2CCN(c3ccn[nH]3)CC2)cc1F [Compound 43] : does RKM % inh. @ 500 nM equal or exceed 20%?
y
